Can you tell me IC50 for the items I'm about to list?
Tested on: blood platelet aggregation
assay_procedure: Blood platelet aggregation inhibition in vitro in rabbit PRP, collagen induced
Type: cell-based, male, New Zealand strain house rabbit
assay_context: Oryctolagus cuniculus, collagen final concentration 5 μg/ml, 37° C., 3 minutes preincubation, 50% inhibition of maximum aggregation rate
Reply with the number and its unit after it.

CC(=O)/C=C1/C(=O)N(c2cc(Cl)ccc2C)C1c1ccccc1 (stereo not shown)    6.6 µM
Cc1ccc(C(=O)/C=C2/C(=O)N(c3ccccc3)C2c2ccccc2)cc1 (stereo not shown)    23.5 µM
O=C(/C=C1/C(=O)N(c2ccccc2F)C1c1ccccc1)c1ccc([N+](=O)[O-])cc1 (stereo not shown)    6.6 µM

# ---- query molecule ----
(Q) Missing value: IC50, blood platelet aggregation, entry O=C(/C=C1/C(=O)N(c2cccc(C(F)(F)F)c2)C1c1ccccc1)c1ccccc1 (stereo not shown) . Fill in?
(A) 7.7 µM

* * *

System: blood platelet aggregation
assay_procedure: Blood platelet aggregation inhibition in vitro in rabbit PRP, collagen induced
Format: cell-based, male, New Zealand strain house rabbit
assay_context: Oryctolagus cuniculus, collagen final concentration 5 μg/ml, 37° C., 3 minutes preincubation, 50% inhibition of maximum aggregation rate
Procedure: Citrated blood (one volume of 3.2% sodium citrate; 9 volumes of blood) was collected from carotid artery of male, New Zealand strain house rabbit, centrifuged at 150 g for 15 minutes to give platelet rich plasma (PRP) as a supernatant, and the remaining blood was centrifuged at 1500 g for 10 minutes to give platelet poor plasma (PPP) as a supernatant. The platelet count of PRP was adjusted to 50-60×10^4 /μl by dilution of PPP. […]
property: IC50

O=C(/C=C1/C(=O)N(c2cc(Cl)cc(Cl)c2)C1c1ccccc1)c1ccc([N+](=O)[O-])cc1 (stereo not shown) [Compound 38]    4.6 µM
O=C(/C=C1/C(=O)N(c2ccccc2)C1c1ccccc1)c1ccc(-c2ccccc2)cc1 (stereo not shown) [Compound 11]    22 µM
COc1ccc(C(=O)/C=C2/C(=O)N(c3ccc(Br)cc3)C2c2ccccc2)cc1 (stereo not shown) [Compound 39]    > 30 µM
COc1ccc(C(=O)/C=C2/C(=O)N(c3ccccc3)C2c2ccccc2)c(OC)c1 (stereo not shown) [Compound 7]    23 µM
Cc1ccccc1N1C(=O)/C(=C/C(=O)c2ccc([N+](=O)[O-])cc2)C1c1ccccc1 (stereo not shown) [Compound 18]    3.2 µM
Cc1ccc(Cl)cc1N1C(=O)/C(=C/C(=O)c2ccccc2)C1c1ccccc1 (stereo not shown) [Compound 26]    9.5 µM
O=C(/C=C1/C(=O)N(c2ccccc2F)C1c1ccccc1)c1ccc(F)cc1 (stereo not shown) [Compound 33]    12.5 µM
Cc1ccccc1N1C(=O)/C(=C/C(=O)c2ccc(F)cc2)C1c1ccc(F)cc1 (stereo not shown) [Compound 78]    8.3 µM

Below are 6 molecules. Give each one its IC50.
1. O=C(/C=C1/C(=O)N(c2ccc(F)cc2)C1c1ccccc1)c1ccc([N+](=O)[O-])cc1 (stereo not shown) [Compound 32]
2. Cc1ccccc1N1C(=O)/C(=C/C(=O)c2ccc([N+](=O)[O-])cc2)C1c1ccc(F)cc1 (stereo not shown) [Compound 79]
3. CCc1ccc(C2/C(=C\C(=O)c3ccc([N+](=O)[O-])cc3)C(=O)N2c2ccccc2C)cc1 (stereo not shown) [Compound 68]
4. CC(=O)/C=C1/C(=O)N(Cc2ccccc2Cl)C1c1ccccc1 (stereo not shown) [Compound 54]
5. Cc1ccccc1N1C(=O)/C(=C/C(=O)c2ccc(F)cc2)C1c1ccccc1 (stereo not shown) [Compound 17]
6. O=C(/C=C1/C(=O)N(c2ccccc2)C1c1ccccc1F)c1ccc([N+](=O)[O-])cc1 (stereo not shown) [Compound 81]

(A)
["3.8 µM", "5.1 µM", "7.5 µM", "15.5 µM", "5 µM", "7 µM"]

Below are 2 molecules. Give each one its IC50.
1. CCc1ccc(C2/C(=C\C(=O)c3ccc(F)cc3)C(=O)N2c2ccccc2C)cc1 (stereo not shown) [Compound 67]
2. O=C(/C=C1/C(=O)N(c2cccc(C(F)(F)F)c2)C1c1ccccc1)c1ccc(F)cc1 (stereo not shown) [Compound 44]

(A)
1. 11 µM
2. 7.3 µM

src = patent US4803266A
